The measured values listed here are drawn from ChEMBL document CHEMBL1152238.

experimentalDetails: Binding affinity to 2GGG sequence of human telomeric DNA assessed as intramolecular folding leading to G-quadruplex formation at 25 degC after 30 mins by electrophoretic mobility shift assay
pEC50: −log10 of the molar value.

[
  {
    "givenSmiles": "C[N+](C)(C)CCN1C(=O)c2ccc3c4ccc5c6c(ccc(c7ccc(c2c37)C1=O)c64)C(=O)N(CC[N+](C)(C)C)C5=O",
    "pEC50": 4.92
  },
  {
    "givenSmiles": "O=C1c2ccc3c4ccc5c6c(ccc(c7ccc(c2c37)C(=O)N1CCN1CCCCC1)c64)C(=O)N(CCN1CCCCC1)C5=O",
    "pEC50": 4.05
  },
  {
    "givenSmiles": "O=C1c2ccc3c4ccc5c6c(ccc(c7ccc(c2c37)C(=O)N1CCNCCO)c64)C(=O)N(CCNCCO)C5=O",
    "pEC50": 5.42
  },
  {
    "givenSmiles": "c1cc2c3ccc4c5c(ccc(c6ccc7c(c1CN(CCN1CCCCC1)C7)c26)c53)CN(CCN1CCCCC1)C4",
    "pEC50": 4.70
  },
  {
    "givenSmiles": "CN(C)CCN1C(=O)c2ccc3c4ccc5c6c(ccc(c7ccc(c2c37)C1=O)c64)C(=O)N(CCN(C)C)C5=O",
    "pEC50": 5.40
  }
]

* * *

Organism: Homo sapiens
experimentalDetails: Binding affinity to 42GGG sequence of human telomeric DNA assessed as G-quadruplex formation at 90 degC after 10 mins by electrophoretic mobility shift assay
Active and inactive are the calls of the source. No cut-off for these calls is given here.

[
  {
    "givenSmiles": "CN(C)CCN1C(=O)c2ccc3c4ccc5c6c(ccc(c7ccc(c2c37)C1=O)c64)C(=O)N(CCN(C)C)C5=O",
    "Activity": "Active"
  },
  {
    "givenSmiles": "c1cc2c3ccc4c5c(ccc(c6ccc7c(c1CN(CCN1CCCCC1)C7)c26)c53)CN(CCN1CCCCC1)C4",
    "Activity": "inactive"
  },
  {
    "givenSmiles": "O=C1c2ccc3c4ccc5c6c(ccc(c7ccc(c2c37)C(=O)N1CCN1CCCCC1)c64)C(=O)N(CCN1CCCCC1)C5=O",
    "Activity": "inactive"
  },
  {
    "givenSmiles": "O=C1c2ccc3c4ccc5c6c(ccc(c7ccc(c2c37)C(=O)N1CCNCCO)c64)C(=O)N(CCNCCO)C5=O",
    "Activity": "Active"
  }
]

* * *

Species on record: Homo sapiens
experimentalDetails: Binding affinity to 4GGG sequence of human telomeric DNA assessed as G-quadruplex formation at 14 uM at 25 degC after 30 mins during thermal cycling by circular dichroism spectroscopy
Activity calls are given as the source filed them. The calls are words filed in the database; no cut-off is given here.
Classes used: y (active), n (inactive)

[
  {
    "givenSmiles": "CN(C)CCN1C(=O)c2ccc3c4ccc5c6c(ccc(c7ccc(c2c37)C1=O)c64)C(=O)N(CCN(C)C)C5=O",
    "labelValue": "n"
  },
  {
    "givenSmiles": "C[N+](C)(C)CCN1C(=O)c2ccc3c4ccc5c6c(ccc(c7ccc(c2c37)C1=O)c64)C(=O)N(CC[N+](C)(C)C)C5=O",
    "labelValue": "y"
  },
  {
    "givenSmiles": "O=C1c2ccc3c4ccc5c6c(ccc(c7ccc(c2c37)C(=O)N1CCN1CCCCC1)c64)C(=O)N(CCN1CCCCC1)C5=O",
    "labelValue": "n"
  },
  {
    "givenSmiles": "O=C1c2ccc3c4ccc5c6c(ccc(c7ccc(c2c37)C(=O)N1CCNCCO)c64)C(=O)N(CCNCCO)C5=O",
    "labelValue": "n"
  },
  {
    "givenSmiles": "c1cc2c3ccc4c5c(ccc(c6ccc7c(c1CN(CCN1CCCCC1)C7)c26)c53)CN(CCN1CCCCC1)C4",
    "labelValue": "n"
  }
]
